experiment.summary: PhX1 concentrations in murine plasma, epithelial lining fluid and alveolar macrophages (BAL procedure, LC-MS/MS)
run.conditions: male, C57BL/6, mouse, in vivo, po, 10 mg/kg, Cmax in plasma, mice, 10 mg/kg oral, plasma
assay.readout: Cmax

Which Cmax is listed for `CCN(CC)c1ccc2nc3c4ccccc4/c(=N\c4ccccc4)cc-3oc2c1` ?
200 ng/mL

* * *

experiment.summary: in vitro
run.conditions: human
In this section, each of the compounds is paired with its reported viability at 48 h, 5 μg/ml.
Include the unit right after the number.

Past entries and their recorded results:
                                chem_smiles  reported
0  C[C@H]1COc2c(N3CCN(C)CC3)c(F)cc3c(=O)c(C(=O)O)cn1c23       95%
1  COc1c(N2C[C@@H]3CCCN[C@@H]3C2)c(F)cc2c(=O)c(C(=O)O)cn(C3CC3)c12       87%

Here is the next item to consider.
Consider the compound shown here: `CCCCCCCCCCOc1cc2c(=O)c(C(=O)NCCOCCO)cn(CC)c2cc1OCC` What is its recorded viability at 48 h, 5 μg/ml?
97%
